Test system: AD38 cells
protocol_text: Viability of AD38 cells, Promega CellTiter-Glo
Assay type: cell-based
condition_description: 10 μM compound, 6 days, CellTiter-Glo luminescence, controls being 100%
result_type: AD38 Viability Normalized Result (cmpd/DMSO %) at 10 μM
Report the value in % with no unit label.

Known AD38 Viability Normalized Result (cmpd/DMSO %) at 10 μM results, listed for orientation:
O=C(NCc1cccc(Sc2ccc(O)cc2)c1)c1ccc2c(c1)NC(=O)c1ccccc1O2 = 102
O=C(NCc1ccc(-c2cccc(O)c2)cc1)c1ccc2c(c1)NC(=O)c1ccccc1S2(=O)=O = 34

Task item: Please state recorded AD38 Viability Normalized Result (cmpd/DMSO %) at 10 μM (tested on AD38 cells) of `O=C(NCc1cccc(Oc2ccc(O)cc2)c1)c1ccc2c(c1)NC(=O)c1ccccc1O2`
Reply: 108

Task item: What measured AD38 Viability Normalized Result (cmpd/DMSO %) at 10 μM is associated with `O=C(NCc1ccc(-c2cncnc2)cc1)c1ccc2c(c1)NC(=O)c1ccccc1S2` on AD38 cells?
Reply: 100

Task item: Form field: AD38 Viability Normalized Result (cmpd/DMSO %) at 10 μM recorded for `O=C(NCc1cccc(Cc2cccc(O)c2)c1)c1ccc2c(c1)NC(=O)c1ccccc1O2` with AD38 cells (enter value)
Reply: 103

Task item: Value wanted: AD38 Viability Normalized Result (cmpd/DMSO %) at 10 μM (AD38 cells) of entry `CN1c2ccc(C(=O)NCCc3ccc(S(=O)(=O)N(C)C)cc3)cc2NC(=O)c2ccccc21`
Reply: 76

Task item: What value of AD38 Viability Normalized Result (cmpd/DMSO %) at 10 μM on AD38 cells does O=C(NCCC(c1ccccc1)N1CCCC1)c1ccc2c(c1)NC(=O)c1ccccc1S2(=O)=O (stereo not shown) have?
Reply: 105
